system: UniProtKB P55211
Sequence (P55211 1-315 limits assumed): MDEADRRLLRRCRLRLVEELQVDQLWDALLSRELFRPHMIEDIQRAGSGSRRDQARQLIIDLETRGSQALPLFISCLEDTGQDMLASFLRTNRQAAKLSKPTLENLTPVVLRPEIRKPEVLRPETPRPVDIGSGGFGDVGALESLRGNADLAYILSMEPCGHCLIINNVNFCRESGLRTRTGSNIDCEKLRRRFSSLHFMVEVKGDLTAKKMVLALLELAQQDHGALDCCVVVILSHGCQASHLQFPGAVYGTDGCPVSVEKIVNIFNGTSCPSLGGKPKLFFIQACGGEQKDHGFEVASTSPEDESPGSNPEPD
Sequence (P55211 331-416 limits assumed): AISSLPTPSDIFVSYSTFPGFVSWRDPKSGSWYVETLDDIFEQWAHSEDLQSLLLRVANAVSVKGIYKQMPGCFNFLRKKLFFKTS
protocol-description: Caspase-9 progress curve inhibition assay
experimental-setup: second-order rate constant; Ac-LEHD-AFC substrate; Hepes buffer pH 7.0 with 0.7 M sodium citrate
# k2 Caspase-9 values compiled below

compound	k2 Caspase-9, M⁻¹ s⁻¹
CC(C)[C@H](NC(=O)[C@H](CCC(=O)O)NC(=O)[C@H](CC(=O)O)NC(=O)OCc1ccccc1)C(=O)NN(CC(=O)O)C(=O)/C=C/C(=O)NCCc1ccccc1 (relative stereo)	655
CC(C)[C@H](NC(=O)[C@H](CCC(=O)O)NC(=O)[C@H](CC(=O)O)NC(=O)OCc1ccccc1)C(=O)NN(CC(=O)O)C(=O)C=CC(=O)N(Cc1cccc2ccccc12)Cc1cccc2ccccc12	150
CCOC(=O)/C=C/C(=O)N(CC(=O)O)NC(=O)[C@@H](NC(=O)[C@H](CCC(=O)O)NC(=O)[C@@H](NC(=O)OCc1ccccc1)C(C)C)C(C)C (relative stereo)	340
CC(C)[C@H](NC(=O)[C@H](CCC(=O)O)NC(=O)[C@H](CC(=O)O)NC(=O)OCc1ccccc1)C(=O)NN(CC(=O)O)C(=O)/C=C/C(=O)N(Cc1ccccc1)Cc1ccccc1 (relative stereo)	450
CC(C)C[C@H](NC(=O)OCc1ccccc1)C(=O)N[C@@H](CCC(=O)O)C(=O)N[C@H](C(=O)NN(CC(=O)O)C(=O)/C=C/C(=O)N(C)CCc1ccccc1)[C@@H](C)O (relative stereo)	960
CC[C@H](C)[C@H](NC(=O)OCc1ccccc1)C(=O)N[C@@H](CCC(=O)O)C(=O)N[C@H](C(=O)NN(CC(=O)O)C(=O)/C=C/C(=O)NCc1ccccc1)[C@@H](C)O (relative stereo)	440

----------
system: S. mansoni legumain (Schistosoma mansoni, UniProt P09841, N192C)
Sequence (P09841 32-291 N192C): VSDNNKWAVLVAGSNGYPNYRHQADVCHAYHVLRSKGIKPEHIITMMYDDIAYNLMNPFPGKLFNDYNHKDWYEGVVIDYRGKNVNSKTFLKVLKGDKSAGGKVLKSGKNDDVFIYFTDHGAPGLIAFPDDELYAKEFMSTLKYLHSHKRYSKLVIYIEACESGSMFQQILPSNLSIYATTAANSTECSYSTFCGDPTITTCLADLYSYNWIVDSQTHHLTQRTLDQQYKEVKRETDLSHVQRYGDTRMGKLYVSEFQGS
protocol-description: S. mansoni legumain (SmAE) inhibition assay
Format: biochemical
experimental-setup: S. mansoni legumain; 20 min preincubation; Cbz-Ala-Ala-Asn-AMC substrate; listed as —COPh
Procedure: Studies with the propenoyl hydrazides using the schistosome legumain […], (Schistosoma mansoni asparaginyl endopeptidase) were also performed. […] The actual active site enzyme concentration is unknown. […] After incubating various inhibitor concentrations with enzyme, 100 μL of the same buffer containing 20 μM substrate (Cbz-Ala-Ala-Asn-AMC) was added to the wells and the reaction monitored at room temperature with linear kinetics up to 20 minutes. […]
measurement-label: IC50

                                   compound                                    system  measurement_label  value_reported
0  C[C@H](NC(=O)OCc1ccccc1)C(=O)N[C@@H](C)C(=O)NN(CC(N)=O)C(=O)/C=C/C(=O)c1ccccc1 [Cbz-Ala-Ala-AAsn-CH═CH—COPh]  S. mansoni legumain (Schistosoma mansoni, UniProt P09841, N192C)               IC50          > 2 µM

----------
The entries below come with measured pIC50 values attached.
system: S. mansoni legumain (Schistosoma mansoni, UniProt P09841, N192C)
protocol-description: S. mansoni legumain (SmAE) inhibition assay
Assay type: biochemical
pIC50: −log10 of the molar value.

compound	reported-relation	pIC50
CC(NC(=O)OCc1ccccc1)C(=O)NC(C)C(=O)NN(CC(N)=O)C(=O)C=CC(=O)N(C)C(Cc1ccccc1)C(=O)N(C)CCc1ccccc1 (stereo not drawn)	=	6.12
C[C@H](NC(=O)OCc1ccccc1)C(=O)N[C@@H](C)C(=O)NN(CC(N)=O)C(=O)/C=C/C(=O)NCCc1ccccc1 [Cbz-Ala-Ala-AAsn-CH═CH—CONHCH2CH2Ph]	=	6.22
C[C@H](NC(=O)OCc1ccccc1)C(=O)N[C@@H](C)C(=O)NN(CC(N)=O)C(=O)/C=C/C(=O)N1CC=C(c2ccccc2)CC1 [Cbz-Ala-Ala-AAsn-CH═CH—CO-(4-Ph-Py)]	=	6.12
C[C@H](NC(=O)OCc1ccccc1)C(=O)N[C@@H](C)C(=O)NN(CC(N)=O)C(=O)/C=C/C(=O)N(Cc1ccccc1)c1ccccc1 [Cbz-Ala-Ala-AAsn-CH═CH—CON(Bzl)Ph]	=	7.15
C[C@H](NC(=O)OCc1ccccc1)C(=O)N[C@@H](C)C(=O)NN(CC(N)=O)C(=O)/C=C/C(=O)N(Cc1ccccc1)Cc1ccc(F)cc1 [Cbz-Ala-Ala-AAsn-CH═CH—CON(Bzl-4-F)Bzl]	=	7.22
C[C@H](NC(=O)OCc1ccccc1)C(=O)N[C@@H](C)C(=O)NN(CC(N)=O)C(=O)/C=C/c1ccco1 [Cbz-Ala-Ala-AAsn-CH═CH-2-furyl]	<	5.70
C[C@H](NC(=O)OCc1ccccc1)C(=O)N[C@@H](C)C(=O)NN(CC(N)=O)C(=O)/C=C/C(=O)N(C)Cc1cccc2ccccc12	=	7.46
C[C@H](NC(=O)OCc1ccccc1)C(=O)N[C@@H](C)C(=O)NN(CC(N)=O)C(=O)/C=C/C(=O)N1CCCc2ccccc21	=	7.15
C[C@H](NC(=O)OCc1ccccc1)C(=O)N[C@@H](C)C(=O)NN(CC(N)=O)C(=O)/C=C/C(=O)N(C)c1ccccc1 [Cbz-Ala-Ala-AAsn-CH═CH—CON(CH3)Ph]	=	7.22
C[C@H](NC(=O)OCc1ccccc1)C(=O)N[C@@H](C)C(=O)NN(CC(N)=O)C(=O)/C=C/C(=O)N(C)CCc1ccccc1 [Cbz-Ala-Ala-AAsn-CH═CH—CON(CH3)CH2CH2Ph]	=	6.22
C[C@H](NC(=O)OCc1ccccc1)C(=O)N[C@@H](C)C(=O)NN(CC(N)=O)C(=O)/C=C/c1cccnc1 [Cbz-Ala-Ala-AAsn-CH═CH-3-Py]	<	5.70
CCOC(=O)C=CC(=O)N(CC(N)=O)NC(=O)C(C)NC(=O)C(C)NC(=O)CCCCC1SCC2NC(=O)NC21 (stereo not drawn) [Biotinyl-Ala-Ala-AAsn-CH═CH—COOEt]	=	8.00
C[C@H](NC(=O)OCc1ccccc1)C(=O)N[C@@H](C)C(=O)NN(CC(N)=O)C(=O)/C=C/C(=O)N1CCc2ccccc21 [Cbz-Ala-Ala-AAsn-CH═CH—CO-indoline]	=	7.15
C[C@H](NC(=O)OCc1ccccc1)C(=O)N[C@@H](C)C(=O)NN(CC(N)=O)C(=O)/C=C/C(=O)N(Cc1ccco1)Cc1ccco1 [Cbz-Ala-Ala-AAsn-CH═CH—CON(CH2-2-furyl)2]	=	6.05
C[C@H](NC(=O)OCc1ccccc1)C(=O)N[C@@H](C)C(=O)NN(CC(N)=O)C(=O)/C=C/C(=O)N(Cc1ccccc1)Cc1ccc2ccccc2c1	=	7.15
C[C@H](NC(=O)OCc1ccccc1)C(=O)N[C@@H](C)C(=O)NN(CC(N)=O)C(=O)/C=C/C(=O)N1Cc2ccccc2C1 [Cbz-Ala-Ala-AAsn-CH═CH—CO-isoindoline]	=	6.52
C[C@H](NC(=O)OCc1ccccc1)C(=O)N[C@@H](C)C(=O)NN(CC(N)=O)C(=O)/C=C/C(=O)NCc1ccccc1 [Cbz-Ala-Ala-AAsn-CH═CH—CONHBzl]	=	6.00
C[C@H](NC(=O)OCc1ccccc1)C(=O)N[C@@H](C)C(=O)NN(CC(N)=O)C(=O)/C=C/C(=O)Nc1ccccc1 [Cbz-Ala-Ala-AAsn-CH═CH—CONHPh]	=	6.15
C[C@H](NC(=O)OCc1ccccc1)C(=O)N[C@@H](C)C(=O)NN(CC(N)=O)C(=O)/C=C/C(=O)N1CCCCC1 [Cbz-Ala-Ala-AAsn-CH═CH—CO-Pip]	=	6.00
C[C@H](NC(=O)OCc1ccccc1)C(=O)N[C@@H](C)C(=O)NN(CC(N)=O)C(=O)/C=C/C(=O)N(Cc1ccccc1)Cc1cccc2ccccc12	=	7.21
CCCCN(CCCC)C(=O)/C=C/C(=O)N(CC(N)=O)NC(=O)[C@H](C)NC(=O)[C@H](C)NC(=O)OCc1ccccc1 [Cbz-Ala-Ala-AAsn-CH═CH—CON(nBu)2]	=	6.26
C[C@H](NC(=O)OCc1ccccc1)C(=O)N[C@@H](C)C(=O)NN(CC(N)=O)C(=O)/C=C/C(=O)NCc1ccc(F)cc1 [Cbz-Ala-Ala-AAsn-CH═CH—CONH-Bzl-4-F]	=	6.10
C[C@H](NC(=O)OCc1ccccc1)C(=O)N[C@@H](C)C(=O)NN(CC(N)=O)C(=O)/C=C/C(=O)N(Cc1ccccc1)Cc1ccccc1 [Cbz-Ala-Ala-AAsn-CH═CH—CON(Bzl)2]	=	7.35
COc1ccc(CN(Cc2ccccc2)C(=O)/C=C/C(=O)N(CC(N)=O)NC(=O)[C@H](C)NC(=O)[C@H](C)NC(=O)OCc2ccccc2)cc1 [Cbz-Ala-Ala-AAsn-CH═CH—CON(Bzl-4-OMe)Bzl]	=	7.05
